Every entry's value here was drawn from patent US20260132132A1.

Molecular target: Human Factor XIIa (hFXIIa) (Homo sapiens)
Sequence (P00748 373-615 limits assumed): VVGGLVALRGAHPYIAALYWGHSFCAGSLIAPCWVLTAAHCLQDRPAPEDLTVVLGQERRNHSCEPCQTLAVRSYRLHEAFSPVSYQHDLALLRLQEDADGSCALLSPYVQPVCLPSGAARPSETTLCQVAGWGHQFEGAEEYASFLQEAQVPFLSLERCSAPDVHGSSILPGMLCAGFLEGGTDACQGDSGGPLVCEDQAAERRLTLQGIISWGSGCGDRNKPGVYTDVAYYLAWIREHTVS
Sequence (P00748 20-372 partner limits assumed): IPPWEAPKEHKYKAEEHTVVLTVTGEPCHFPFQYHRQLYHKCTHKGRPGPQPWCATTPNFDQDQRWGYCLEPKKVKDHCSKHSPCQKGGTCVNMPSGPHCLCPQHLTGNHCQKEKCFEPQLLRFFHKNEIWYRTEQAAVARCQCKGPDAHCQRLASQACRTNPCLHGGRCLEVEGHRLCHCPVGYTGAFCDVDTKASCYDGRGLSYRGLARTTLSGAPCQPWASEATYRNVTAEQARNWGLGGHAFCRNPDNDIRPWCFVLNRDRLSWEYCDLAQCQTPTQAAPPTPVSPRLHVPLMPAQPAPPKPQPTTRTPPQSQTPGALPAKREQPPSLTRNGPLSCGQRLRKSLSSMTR
pIC50: −log10 of the molar value.
quantityKind: pIC50

CN1CCc2ccc(N3CCc4c(C(=O)NS(C)(=O)=O)nn(-c5cccc(Cl)c5)c4C3=O)cc2C1=O = 5.00 to 5.52

Query string: Quick check: pIC50 of Cc1nc2c(C(=O)NCC3CC3)nn(-c3cccc(Cl)c3F)c2c(=O)n1-c1ccc2c(c1)C(=O)N(C)CCO2 ?
Result string: 6.00 to 6.52

Query string: Same thing, different molecule: O=C(NCc1cccnn1)c1nn(-c2cccc(Cl)c2)c2c1CCN(c1ccc3c(c1)CN(CCO)CC3)C2=O
Result string: 6.52 to 7.00

Query string: Same thing, different molecule: COCCN(C)C(=O)c1cccc(N2CCc3c(C(=O)NCC4CC4)nn(-c4cccc(Cl)c4)c3C2=O)c1
Result string: 5.00 to 5.52

----------
target: UniProt P00734; test: Related protease inhibition: Thrombin, fluorogenic substrate; type: biochemical; settings: fluorogenic substrate at Km, 25° C.; H1-H3 = % activity at 40 μM; read-out: IC50 (human thrombin) nM
quantityKind: activity at 40 µM

Here's what some known entries look like.
CCNC(=O)c1nn(-c2cccc(C#N)c2C)c2c1CCN(c1ccc3c(c1)C(=O)N(C)CC3)C2=O = 20 to 80%
CN1CCc2ccc(N3CCc4c(C(=O)NCCCO)nn(-c5cccc(Cl)c5)c4C3=O)cc2C1=O = 20 to 80%

Consider now this further compound.
Query string: Quick check: activity at 40 µM of CCNC(=O)c1nn(-c2cccc(Cl)c2)c2c1CCN(c1cccc(N3CCN(C)C(=O)C3)c1)C2=O ?
Result string: < 20%

----------
Quick list: IC50 per entry.
Molecular target: Human Factor XIIa (hFXIIa) (Homo sapiens, UniProt P00748)
Sequence (P00748 373-615 limits assumed): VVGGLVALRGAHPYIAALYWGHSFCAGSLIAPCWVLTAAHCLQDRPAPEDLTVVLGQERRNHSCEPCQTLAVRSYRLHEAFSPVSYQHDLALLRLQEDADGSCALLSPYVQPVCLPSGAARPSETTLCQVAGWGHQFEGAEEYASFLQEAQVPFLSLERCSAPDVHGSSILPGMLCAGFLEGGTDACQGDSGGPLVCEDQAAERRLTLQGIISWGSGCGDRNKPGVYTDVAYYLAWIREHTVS
Sequence (P00748 20-372 partner limits assumed): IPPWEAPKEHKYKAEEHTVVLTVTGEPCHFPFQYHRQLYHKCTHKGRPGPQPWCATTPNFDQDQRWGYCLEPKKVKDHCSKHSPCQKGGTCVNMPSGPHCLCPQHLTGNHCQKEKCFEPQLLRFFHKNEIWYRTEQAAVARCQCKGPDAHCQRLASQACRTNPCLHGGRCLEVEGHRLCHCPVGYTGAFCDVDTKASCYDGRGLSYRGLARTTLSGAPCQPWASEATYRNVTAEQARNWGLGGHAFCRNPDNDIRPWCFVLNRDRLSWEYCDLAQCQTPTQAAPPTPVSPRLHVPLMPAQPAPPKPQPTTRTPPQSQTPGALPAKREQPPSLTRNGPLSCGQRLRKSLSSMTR

CCNC(=O)c1nn(-c2cccc(Cl)c2)c2c1CCN(c1ccc(OC)c(N3C(=O)CC4CC43)c1)C2=O (stereo not shown) = 3000 to 10000 nM
CN1CCc2ccc(N3CCc4c(C(=O)NC5CNCC5(F)F)nn(-c5cccc(Cl)c5)c4C3=O)cc2C1=O (stereo not shown) = 300 to 1000 nM
CCNC(=O)c1nn(-c2cc(Cl)ccc2F)c2c1CCN(c1ccc3c(c1)C(=O)N(C)CC3)C2=O = 3000 to 10000 nM
Cc1cccc(-n2nc(C(=O)NCc3cnccc3C)c3c2C(=O)N(c2ccc4c(c2)CN(CCO)CC4)CC3)c1 = 10 to 100 nM
O=C(NCc1cnccc1Cl)c1nn(-c2cccc(Cl)c2)c2c1CCN(c1ccc3c(c1)CN(CCO)CC3)C2=O = 10 to 100 nM
CCNC(=O)c1nn(-c2cccc(Cl)c2)c2c1CCN(c1cccc(CN3CCCCC3)c1)C2=O = 3000 to 10000 nM

Consider now this further compound.
Query string: Quick check: IC50 of Cc1cc(CNC(=O)c2nn(-c3cccc(Cl)c3)c3c2CCN(c2ccc4c(c2)C(=O)N(C)CC(=O)N4C)C3=O)n[nH]1 ?
Result string: 300 to 1000 nM
